Parameter: abundance fitness. Scope: all listed entries.
B1: Cytoplasmic polyadenylation element-binding protein 2, residues 513 to 575; numbered along this chain, Q7Z5Q1 (parent)
chain: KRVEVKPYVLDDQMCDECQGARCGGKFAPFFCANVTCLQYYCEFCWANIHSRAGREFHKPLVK

- Variants of: B1
- protocol-text: abundance fitness (aPCA) (normalised: wild type 0, dead -1); higher = more abundant; growth selection in yeast, the domain comes from the species named
- condition-description: Homo sapiens

>  <change>
A33Q

>  <abundance fitness>
0.099

$$$$
>  <change>
E56Y

>  <abundance fitness>
-0.271

$$$$
>  <change>
C45K

>  <abundance fitness>
-1.11

$$$$
>  <change>
F44T

>  <abundance fitness>
0.003

$$$$
>  <change>
K59H

>  <abundance fitness>
-0.226

$$$$
>  <change>
E4D

>  <abundance fitness>
-0.132

$$$$
>  <change>
C45I

>  <abundance fitness>
-1.1

$$$$
>  <change>
Q39L

>  <abundance fitness>
-0.175

$$$$
>  <change>
P29G

>  <abundance fitness>
-0.03

$$$$
>  <change>
G24A

>  <abundance fitness>
-0.052

$$$$
>  <change>
K26W

>  <abundance fitness>
-0.509

$$$$
>  <change>
E17L

>  <abundance fitness>
-0.117

$$$$
>  <change>
K6V

>  <abundance fitness>
-0.104

$$$$
>  <change>
V35C

>  <abundance fitness>
-0.253

$$$$
>  <change>
H58Y

>  <abundance fitness>
-0.822

$$$$
>  <change>
R22S

>  <abundance fitness>
-0.04

$$$$
>  <change>
K26Q

>  <abundance fitness>
-0.132

$$$$
>  <change>
N48I

>  <abundance fitness>
-0.02

$$$$
>  <change>
E56L

>  <abundance fitness>
-0.253

$$$$
>  <change>
L38S

>  <abundance fitness>
0.009

$$$$
>  <change>
R2H

>  <abundance fitness>
-0.319

$$$$
>  <change>
F57P

>  <abundance fitness>
-0.029

$$$$
>  <change>
E56P

>  <abundance fitness>
-0.31

$$$$
>  <change>
N34F

>  <abundance fitness>
-0.363

$$$$
>  <change>
N48H

>  <abundance fitness>
0.049

$$$$
>  <change>
Q19R

>  <abundance fitness>
-0.015

$$$$
>  <change>
I49F

>  <abundance fitness>
-0.044

$$$$
>  <change>
W46V

>  <abundance fitness>
-0.573

$$$$
>  <change>
S51N

>  <abundance fitness>
0.091

$$$$
>  <change>
Y41I

>  <abundance fitness>
-0.694

$$$$
>  <change>
M14A

>  <abundance fitness>
-0.098

$$$$
>  <change>
N34C

>  <abundance fitness>
-0.354

$$$$
>  <change>
V5M

>  <abundance fitness>
-0.011

$$$$
>  <change>
K26M

>  <abundance fitness>
-0.1

$$$$
>  <change>
C18H

>  <abundance fitness>
-1.01

$$$$
>  <change>
E4V

>  <abundance fitness>
-0.223

$$$$
>  <change>
P60G

>  <abundance fitness>
-0.341

$$$$
>  <change>
C42G

>  <abundance fitness>
-0.58

$$$$
>  <change>
Q13C

>  <abundance fitness>
-0.146

$$$$
>  <change>
C23Q

>  <abundance fitness>
-0.24

$$$$
>  <change>
T36E

>  <abundance fitness>
0.108

$$$$
>  <change>
F31W

>  <abundance fitness>
-0.04

$$$$
>  <change>
G54T

>  <abundance fitness>
-0.112

$$$$
>  <change>
F44W

>  <abundance fitness>
-0.067

$$$$
>  <change>
K26V

>  <abundance fitness>
-0.06

$$$$

Entry source: the Human Domainome abundance scans (Beltran et al. 2025)
